# ASSAY_TARGET: T1, recombinant human GPC3 protein (human, UniProt P51654 25-563)
# T1 construct: also called human GPC3 full-length protein; recombinant GPC3 protein
# MEASUREMENT_DESCRIPTION: BLI (Octet), antibody on Protein A probe
MEASUREMENT_LABEL: kon
A complete answer gives the number followed by the unit.

h49G8VHv6VKv5 (antibody, V domains shown, Humanized 49G8) VH: QVQLVQSGAEVKKPGSSVKVSCKASGYTFADYEIHWVRQAPGQGLEWMGAIHPGSGGTAYAQKFQGRVTLTADESSTTAYMELSSLRSEDTAVYYCTRYYSFAYWGQGTLVTVSS VL: DVVMTQSPLSLPVTPGEPASISCRSSQSIVHSNTNTYLEWYLQKPGQSPQLLIYKVSNRFSGVPDRFSGSGSGTDFTLKISRVEAEDVGVYFCLQVTHVPLTFGQGTKLEIK | 90000 M⁻¹ s⁻¹
h49G8VHv6VKv6 (antibody, V domains shown, Humanized 49G8) VH: QVQLVQSGAEVKKPGSSVKVSCKASGYTFADYEIHWVRQAPGQGLEWMGAIHPGSGGTAYAQKFQGRVTLTADESSTTAYMELSSLRSEDTAVYYCTRYYSFAYWGQGTLVTVSS VL: DVVMTQSPLSLPVTPGEPASISCRSSQSIVHSNANTYLEWYLQKPGQSPQLLIYKVSNRFSGVPDRFSGSGSGTDFTLKISRVEAEDVGVYFCLQVTHVPLTFGQGTKLEIK | 92400 M⁻¹ s⁻¹

In the following, a different binder is considered.
kon for h49G8VHv6VKv2 (antibody, V domains shown, Humanized 49G8; The name is read as h49G8VHv6 plus h49G8VKv2) VH: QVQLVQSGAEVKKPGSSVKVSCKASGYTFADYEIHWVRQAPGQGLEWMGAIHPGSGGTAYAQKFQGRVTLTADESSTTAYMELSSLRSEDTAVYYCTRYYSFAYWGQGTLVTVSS VL: DVVMTQSPLSLPVTPGEPASISCRSSQSIVHSNYNTYLEWYLQKPGQSPQLLIYKVSNRFSGVPDRFSGSGSGTDFTLKISRVEAEDVGVYFCLQVTHVPLTFGQGTKLEIK is 93600 M⁻¹ s⁻¹
